- Test Target: Sulfonylurea receptor 2, Kir6.2 (Homo sapiens, UniProt O60706+Q14654)
- Sequence (Q14654 whole entry): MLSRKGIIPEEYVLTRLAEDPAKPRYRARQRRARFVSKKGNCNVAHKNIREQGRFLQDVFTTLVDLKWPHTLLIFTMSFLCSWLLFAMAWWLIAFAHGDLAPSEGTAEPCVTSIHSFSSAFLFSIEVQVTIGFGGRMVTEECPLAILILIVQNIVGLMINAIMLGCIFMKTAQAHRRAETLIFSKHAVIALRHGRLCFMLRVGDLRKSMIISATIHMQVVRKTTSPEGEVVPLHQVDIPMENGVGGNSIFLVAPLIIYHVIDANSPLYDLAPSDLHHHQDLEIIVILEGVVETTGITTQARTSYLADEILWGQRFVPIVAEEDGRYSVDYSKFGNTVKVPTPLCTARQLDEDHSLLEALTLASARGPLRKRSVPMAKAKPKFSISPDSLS
- Sequence (O60706 whole entry): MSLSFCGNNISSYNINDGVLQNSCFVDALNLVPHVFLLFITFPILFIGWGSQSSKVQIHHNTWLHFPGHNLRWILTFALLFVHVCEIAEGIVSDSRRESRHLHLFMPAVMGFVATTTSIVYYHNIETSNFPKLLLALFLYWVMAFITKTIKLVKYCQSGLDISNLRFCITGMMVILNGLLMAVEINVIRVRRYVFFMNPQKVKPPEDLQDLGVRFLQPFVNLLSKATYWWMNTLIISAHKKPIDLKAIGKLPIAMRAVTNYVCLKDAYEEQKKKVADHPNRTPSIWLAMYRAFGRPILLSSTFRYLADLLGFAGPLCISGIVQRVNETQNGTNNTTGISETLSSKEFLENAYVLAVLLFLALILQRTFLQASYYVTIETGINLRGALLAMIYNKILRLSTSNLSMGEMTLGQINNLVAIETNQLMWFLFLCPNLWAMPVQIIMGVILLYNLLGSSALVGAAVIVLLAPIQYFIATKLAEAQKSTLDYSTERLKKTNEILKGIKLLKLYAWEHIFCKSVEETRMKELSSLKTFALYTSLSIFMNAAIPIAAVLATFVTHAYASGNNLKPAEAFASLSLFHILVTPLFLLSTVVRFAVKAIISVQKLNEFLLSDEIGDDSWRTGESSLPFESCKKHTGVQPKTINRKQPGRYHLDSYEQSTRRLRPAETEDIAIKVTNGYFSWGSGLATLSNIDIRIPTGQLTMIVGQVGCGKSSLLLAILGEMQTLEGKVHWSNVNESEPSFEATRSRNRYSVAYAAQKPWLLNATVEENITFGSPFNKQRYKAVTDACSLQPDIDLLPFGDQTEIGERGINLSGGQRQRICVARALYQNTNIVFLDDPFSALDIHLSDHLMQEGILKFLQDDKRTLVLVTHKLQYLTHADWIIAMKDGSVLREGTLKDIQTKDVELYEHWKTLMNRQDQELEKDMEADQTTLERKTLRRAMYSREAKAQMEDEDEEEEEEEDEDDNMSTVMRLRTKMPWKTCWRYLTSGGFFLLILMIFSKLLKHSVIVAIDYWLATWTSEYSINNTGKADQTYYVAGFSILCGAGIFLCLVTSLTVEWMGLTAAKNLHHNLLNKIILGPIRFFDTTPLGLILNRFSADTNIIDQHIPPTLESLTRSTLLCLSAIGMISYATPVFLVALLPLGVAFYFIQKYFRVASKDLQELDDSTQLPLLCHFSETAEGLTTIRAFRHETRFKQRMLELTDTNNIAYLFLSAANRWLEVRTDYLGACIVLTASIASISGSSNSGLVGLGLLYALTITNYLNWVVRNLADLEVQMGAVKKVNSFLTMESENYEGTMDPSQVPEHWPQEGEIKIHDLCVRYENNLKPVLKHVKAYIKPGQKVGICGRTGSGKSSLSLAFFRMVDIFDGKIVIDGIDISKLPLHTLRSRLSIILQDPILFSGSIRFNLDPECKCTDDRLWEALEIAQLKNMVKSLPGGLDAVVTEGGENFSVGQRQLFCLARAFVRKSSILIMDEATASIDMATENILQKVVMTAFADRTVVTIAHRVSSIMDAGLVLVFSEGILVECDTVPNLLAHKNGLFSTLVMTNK
- Protocol Description: Ability to open human urinary bladder Kir6.2 channel containing SUR2B in Ltk cells by FLIPR assay
- Type: functional, cell-based
Catalogue of compounds with associated EC50

// solved cases for EC50 follow
                                   compound  observed
0  CC1(C)OCC2=C(C1=O)C(c1ccc(F)c(Br)c1)C1=C(O)OCC1=N2 (stereo in doubt; 9)     24 nM
1  CCc1cc(C#N)ccc1Nc1c(N[C@H](C)C(C)(C)C)c(=O)c1=O   2340 nM
2  CC[C@@H]1OC(O)=C2C1=NC1=C(C(=O)COC1)[C@H]2c1ccc(F)c(Br)c1 (racemic)   35.5 nM
3  O=C1COCC2=C1C(c1ccc(F)c(Br)c1)C1=C(O)COCC1=N2 (stereo not drawn)   27.5 nM
4  CCC[C@H]1OC(O)=C2C1=NC1=C(C(=O)COC1)[C@H]2c1ccc(Br)c(Cl)c1 (stereo in doubt; 44a)   1050 nM

Q) Field request: EC50 | item: CC[C@H]1OCC(O)=C2C1=NC1=C(C(=O)COC1)[C@H]2c1ccc(C)c(Br)c1 (stereo in doubt; 78a)
A) 724 nM

Q) Consider the compound shown here: CC[C@H]1OCC(=O)C2=C1N=C1COC(O)=C1[C@@H]2c1ccc(F)c(Br)c1 (relative stereo) What is its recorded EC50?
A) 18.2 nM

Q) Form field: reported EC50 of CC[C@H]1OCC(O)=C2C1=NC1=C(C(=O)COC1)[C@H]2c1ccc(Br)c(Cl)c1 (stereo in doubt; 76b)
A) 245 nM

----------
- Test Target: Sulfonylurea receptor 2, Kir6.2 (Homo sapiens, UniProt O60706+Q14654)
- Protocol Description: Ability to open human urinary bladder Kir6.2 channel containing SUR2B in Ltk cells by FLIPR assay
- Format: functional, cell-based
Recorded pEC50 for the following molecules
As a rule, pEC50 stands for the negative log10 of the concentration, concentration in M.

Previously resolved entries follow.
>>> print(df.to_string())
                                   molecule  recorded_metric  observed
0  CC[C@@H]1OCC(O)=C2C1=NC1=C(C(=O)COC1)[C@H]2c1ccc(F)c(Br)c1 (stereo in doubt; 70b)            pEC50      7.70
1  O=C1COCC2=C1[C@@H](c1ccc(F)c(Br)c1)C1=C(O)O[C@@H](c3ccccc3)C1=N2 (relative stereo)            pEC50      6.59
2  CC[C@H]1OCC(O)=C2C1=NC1=C(C(=O)COC1)[C@H]2c1ccc(Cl)c(Cl)c1 (racemic)            pEC50      6.98
3  C[C@H]1OCC(=O)C2=C1N=C1COC(O)=C1[C@@H]2c1ccc(F)c(Br)c1 (relative stereo)            pEC50      8.74
4  CC1(C)OC(O)=C2C1=NC1=C(C(=O)COC1)C2c1ccc(F)c(Br)c1 (stereo not drawn)            pEC50      7.57

Q) Hello, I am looking for reported pEC50 with Sulfonylurea receptor 2, Kir6.2 (Homo sapiens, UniProt O60706+Q14654) for CCC[C@H]1OC(O)=C2C1=NC1=C(C(=O)COC1)[C@H]2c1ccc(C)c(Br)c1 (stereo in doubt; 46a) . Could you help?
A) 5.46

Q) Form entry - test system: Sulfonylurea receptor 2, Kir6.2 (Homo sapiens, UniProt O60706+Q14654); read-out: pEC50; molecule: CC[C@@H]1OCC(=O)C2=C1N=C1COC(O)=C1[C@@H]2c1ccc(F)c(Br)c1 (relative stereo)
A) 6.03

Q) Lab request: please report pEC50 under test system Sulfonylurea receptor 2, Kir6.2 (Homo sapiens, UniProt O60706+Q14654) for CC[C@@H]1OCC(O)=C2C1=NC1=C(C(=O)COC1)[C@H]2c1ccc(F)c(Br)c1 (stereo in doubt; 70a)
A) 6.78
